- system-tested: HLA-A*02:01
- method-summary: IEDB peptide-MHC binding, purified MHC/direct/fluorescence; filed as Kd, often an IC50 or EC50 that approximates it; bounds were set here for any values at or beyond the usual limits of such assays
- conditions: source organism: Camelpox virus M-96
pKd: −log10 of the molar value.
reported-metric: pKd

INSERT INTO results (biopolymer_sequence, reported_metric, limit_operator, observed_result) VALUES
  ('WYYDFHFFV', 'pKd', '=', 6.41),
  ('FTENGPWMY', 'pKd', '≤', 4.70),
  ('ITMVNSLTY', 'pKd', '≤', 4.70),
  ('YLYETYHLI', 'pKd', '=', 8.70),
  ('FLIDLAFLI', 'pKd', '=', 8.52);

* * *

- system-tested: HLA-A*03:01
- method-summary: IEDB peptide-MHC binding, purified MHC/direct/fluorescence; filed as Kd, often an IC50 or EC50 that approximates it; bounds were set here for any values at or beyond the usual limits of such assays
- conditions: source organism: Corynebacterium glutamicum
reported-metric: Kd

INSERT INTO measurements (biopolymer_sequence, reported_metric, observed_result) VALUES
  ('YELLRYNEY', 'Kd', '≥ 20 µM');

* * *

- system-tested: HLA-B*57:01
- method-summary: IEDB peptide-MHC binding, purified MHC/competitive/fluorescence; filed as Kd, often an IC50 or EC50 that approximates it; bounds were set here for any values at or beyond the usual limits of such assays
- conditions: source organism: Neembucu hantavirus
pKd: −log10 of the molar value.
reported-metric: pKd

INSERT INTO measurements (biopolymer_sequence, observed_result) VALUES
  ('ETESATLFT', '≤ 4.70');

* * *

- system-tested: HLA-B*48:01
- method-summary: IEDB peptide-MHC binding, purified MHC/direct/fluorescence; filed as Kd, often an IC50 or EC50 that approximates it; bounds were set here for any values at or beyond the usual limits of such assays
- conditions: source organism: Escherichia coli O157:H7
reported-metric: Kd

INSERT INTO assay_data (biopolymer_sequence, reported_metric, observed_result) VALUES
  ('GEIFGLLGP', 'Kd', '≥ 20 µM');

* * *

Overview of recorded Kd for various sequences
- system-tested: HLA-B*57:01
- method-summary: IEDB peptide-MHC binding, purified MHC/direct/fluorescence; filed as Kd, often an IC50 or EC50 that approximates it; bounds were set here for any values at or beyond the usual limits of such assays
- conditions: source organism: Camelpox virus M-96
reported-metric: Kd (nM)

INSERT INTO assay_data (biopolymer_sequence, system_tested, limit_operator, observed_result) VALUES
  ('GLYRLNFRR', 'HLA-B*57:01', '≥', 20000),
  ('KSLVQYIKF', 'HLA-B*57:01', '=', 508);

* * *

- system-tested: HLA-A*01:01
- method-summary: IEDB peptide-MHC binding, purified MHC/direct/fluorescence; filed as Kd, often an IC50 or EC50 that approximates it; bounds were set here for any values at or beyond the usual limits of such assays
- conditions: source organism: Vibrio parahaemolyticus
Listed next: entries and their corresponding Kd.
reported-metric: Kd (nM)

INSERT INTO results (biopolymer_sequence, limit_operator, observed_result) VALUES
  ('RSTLANGWY', '=', 274),
  ('RTHTLRDAK', '≥', 20000);

Data origin, for the record: the Immune Epitope Database (IEDB)
